Assign pIC50 to each entry below.
Test system: CCRF-CEM
protocol: Cytotoxicity against human CCRF-CEM cells after 3 days by XTT assay
Assay type: functional, cell-based
condition_description: 72 h
Recall that pIC50 is obtained by taking minus log10 of the concentration measured in molar.

Lab book: pIC50 of Nc1ncnc2c1c1c(Cl)cccc1n2[C@@H]1O[C@H](CO)[C@@H](O)[C@H]1O noted as 4.92

Summary for this molecule, Nc1ncnc2c1c1cc(-c3cc4ccccc4o3)ccc1n2[C@@H]1O[C@H](CO)[C@@H](O)[C@H]1O : pIC50 is 4.49

Kindly note the recorded pIC50 for Cc1ncnc2c1c1ccccc1n2[C@@H]1O[C@H](CO)[C@@H](O)[C@H]1O , which is 4.09

###

protocol: Cytotoxicity against human […] cells infected with HCV 1B
Format: cell-based
What CC50 was measured for each of the following?

What the record says about Nc1ncnc2c1c1ccccc1n2[C@@H]1O[C@H](CO)[C@@H](O)[C@H]1O : CC50 is > 44 µM

Per the record, Nc1ncnc2c1c1cc(-c3cccs3)ccc1n2[C@@H]1O[C@H](CO)[C@@H](O)[C@H]1O has CC50 of > 44 µM

CC50 reported for this compound Cc1ncnc2c1c1ccccc1n2[C@@H]1O[C@H](CO)[C@@H](O)[C@H]1O : > 44 µM

CC50 reported for this compound CCCCc1cccc2c1c1c(N)ncnc1n2[C@@H]1O[C@H](CO)[C@@H](O)[C@H]1O : > 44 µM

compound Nc1ncnc2c1c1c(Cl)cccc1n2[C@@H]1O[C@H](CO)[C@@H](O)[C@H]1O , CC50 observed: 1.71 µM

###

protocol: Cytotoxicity against african green monkey Vero cells after 48 hrs by XTT assay
Type: cell-based
condition_description: chlorocebus sabaeus
Would you mind telling me the reported CC50 at 48 h of each entry?
Form entry: value (µM) — number only.

Value of CC50 at 48 h reported for the molecule Nc1ncnc2c1c1c(Cl)cccc1n2[C@@H]1O[C@H](CO)[C@@H](O)[C@H]1O is 1.14

For CCCCc1cccc2c1c1c(N)ncnc1n2[C@@H]1O[C@H](CO)[C@@H](O)[C@H]1O the molecule record lists CC50 at 48 h as 62.9

Lab book: CC50 at 48 h of Nc1ncnc2c1c1cc(-c3ccsc3)ccc1n2[C@@H]1O[C@H](CO)[C@@H](O)[C@H]1O noted as 46.3

Looking up Nc1ncnc2c1c1ccccc1n2[C@@H]1O[C@H](CO)[C@@H](O)[C@H]1O , I see its CC50 at 48 h listed as 43.5

###

Test system: Hepatitis C virus
protocol: Antiviral activity against HCV 1B infected in […] cells
Format: functional, organism-based, Hepacivirus hominis
condition_description: genotype 1b
Record form. Attribute: EC50. Fill in for each entry.

Noted for Nc1ncnc2c1c1c(Cl)cccc1n2[C@@H]1O[C@H](CO)[C@@H](O)[C@H]1O : its EC50 reads 0.32 µM

What the record says about CCCCc1cccc2c1c1c(N)ncnc1n2[C@@H]1O[C@H](CO)[C@@H](O)[C@H]1O : EC50 is 8.81 µM

For Nc1ncnc2c1c1cc(-c3ccsc3)ccc1n2[C@@H]1O[C@H](CO)[C@@H](O)[C@H]1O the molecule record lists EC50 as 7.38 µM

Please fill in: EC50 reported for Cc1ncnc2c1c1ccccc1n2[C@@H]1O[C@H](CO)[C@@H](O)[C@H]1O = 0.34 µM

# molecule Nc1ncnc2c1c1cc(-c3cc4ccccc4o3)ccc1n2[C@@H]1O[C@H](CO)[C@@H](O)[C@H]1O ; its EC50 = 4.83 µM

// recorded EC50 for CN(C)c1ncnc2c1c1ccccc1n2[C@@H]1O[C@H](CO)[C@@H](O)[C@H]1O : 7.07 µM

The molecule identified as Nc1ncnc2c1c1ccccc1n2[C@@H]1O[C@H](CO)[C@@H](O)[C@H]1O registered its EC50 at 11.1 µM

Looking up Nc1ncnc2c1c1cc(-c3cccs3)ccc1n2[C@@H]1O[C@H](CO)[C@@H](O)[C@H]1O , I found its EC50 recorded as 8.75 µM

###

protocol: Cytotoxicity against human […] cells infected with HCV 1A
Assay type: cell-based
property_label: CC50

Value of CC50 reported for the molecule Nc1ncnc2c1c1c(Cl)cccc1n2[C@@H]1O[C@H](CO)[C@@H](O)[C@H]1O is 1.16 µM

Consider Nc1ncnc2c1c1cc(-c3cccs3)ccc1n2[C@@H]1O[C@H](CO)[C@@H](O)[C@H]1O . Its measured CC50 is 18.1 µM

Entry CCCCc1cccc2c1c1c(N)ncnc1n2[C@@H]1O[C@H](CO)[C@@H](O)[C@H]1O ; CC50 = > 44 µM

According to the records, this molecule Cc1ncnc2c1c1ccccc1n2[C@@H]1O[C@H](CO)[C@@H](O)[C@H]1O displays CC50 of > 44 µM

Given item Nc1ncnc2c1c1ccccc1n2[C@@H]1O[C@H](CO)[C@@H](O)[C@H]1O , the value recorded as its CC50 is > 44 µM

Nc1ncnc2c1c1cc(-c3cc4ccccc4o3)ccc1n2[C@@H]1O[C@H](CO)[C@@H](O)[C@H]1O yielded CC50 of 14.5 µM

Sure, the documented CC50 for CN(C)c1ncnc2c1c1ccccc1n2[C@@H]1O[C@H](CO)[C@@H](O)[C@H]1O is > 44 µM

Value of measured CC50 for the entry Nc1ncnc2c1c1cc(-c3ccsc3)ccc1n2[C@@H]1O[C@H](CO)[C@@H](O)[C@H]1O : 17.3 µM

###

protocol: Selectivity index, ratio of CC50 for african green monkey Vero cells to EC50 for Dengue virus 2 infected in Vero cells
Format: toxicity, cell-based
condition_description: read-out: Ratio CC50/EC50
property_label: selectivity ratio
Respond numerically, and do not add a unit to the figure.

So, Nc1ncnc2c1c1cc(-c3ccsc3)ccc1n2[C@@H]1O[C@H](CO)[C@@H](O)[C@H]1O ? Its selectivity ratio was 2.5

The reported value for CCCCc1cccc2c1c1c(N)ncnc1n2[C@@H]1O[C@H](CO)[C@@H](O)[C@H]1O in terms of selectivity ratio is 4.3

response.value for Nc1ncnc2c1c1ccccc1n2[C@@H]1O[C@H](CO)[C@@H](O)[C@H]1O (field: selectivity ratio) = 1.1

Just so you know, measured selectivity ratio for Nc1ncnc2c1c1c(Cl)cccc1n2[C@@H]1O[C@H](CO)[C@@H](O)[C@H]1O came out at 1.3

###

Test system: HepG2
protocol: Cytotoxicity against human HepG2 cells after 3 days by XTT assay
Assay type: functional, cell-based
condition_description: HepG2, 72 h
property_label: IC50 (µM)
Give the number; µM is assumed, so skip it.

Lab book: IC50 of Nc1ncnc2c1c1cc(-c3cc4ccccc4o3)ccc1n2[C@@H]1O[C@H](CO)[C@@H](O)[C@H]1O noted as 60

The measured IC50 associated with Cc1ncnc2c1c1ccccc1n2[C@@H]1O[C@H](CO)[C@@H](O)[C@H]1O reads 15

So, Nc1ncnc2c1c1c(Cl)cccc1n2[C@@H]1O[C@H](CO)[C@@H](O)[C@H]1O ? Its IC50 was 21

###

protocol: Cytotoxicity against human […] cells infected with HCV 2A
Type: cell-based
property_label: CC50

// CC50 value for Nc1ncnc2c1c1ccccc1n2[C@@H]1O[C@H](CO)[C@@H](O)[C@H]1O : > 44 µM

# CC50 (molecule: Nc1ncnc2c1c1cc(-c3ccsc3)ccc1n2[C@@H]1O[C@H](CO)[C@@H](O)[C@H]1O ) is 30.2 µM

// CC50 value for Cc1ncnc2c1c1ccccc1n2[C@@H]1O[C@H](CO)[C@@H](O)[C@H]1O : > 44 µM

Form: molecule = CN(C)c1ncnc2c1c1ccccc1n2[C@@H]1O[C@H](CO)[C@@H](O)[C@H]1O ; CC50 = > 44 µM

The reported value for Nc1ncnc2c1c1cc(-c3cccs3)ccc1n2[C@@H]1O[C@H](CO)[C@@H](O)[C@H]1O in terms of CC50 is > 44 µM

Value of measured CC50 for the entry Nc1ncnc2c1c1c(Cl)cccc1n2[C@@H]1O[C@H](CO)[C@@H](O)[C@H]1O : 1.66 µM

Lab note: Nc1ncnc2c1c1cc(-c3cc4ccccc4o3)ccc1n2[C@@H]1O[C@H](CO)[C@@H](O)[C@H]1O gave CC50 of 18 µM

What the record says about CCCCc1cccc2c1c1c(N)ncnc1n2[C@@H]1O[C@H](CO)[C@@H](O)[C@H]1O : CC50 is > 44 µM

###

Hi there, I'd appreciate the recorded log10 of EC50 for every entry that follows.
Tested on: Hepatitis C virus
protocol: Antiviral activity against HCV 1A infected in […] cells
Type: functional, organism-based, Hepacivirus hominis
condition_description: subtype 1a
Hello, just confirming the data are log10 of EC50 with units of µM.

Per the reported Hepatitis C virus data, Nc1ncnc2c1c1c(Cl)cccc1n2[C@@H]1O[C@H](CO)[C@@H](O)[C@H]1O has log10 of EC50 of -0.28

Query Nc1ncnc2c1c1cc(-c3cc4ccccc4o3)ccc1n2[C@@H]1O[C@H](CO)[C@@H](O)[C@H]1O on Hepatitis C virus; log10 of EC50 returned: 0.79

The compound Nc1ncnc2c1c1ccccc1n2[C@@H]1O[C@H](CO)[C@@H](O)[C@H]1O , when measured on Hepatitis C virus, yielded log10 of EC50 of 1.49

Reported log10 of EC50 (Hepatitis C virus) for entry CN(C)c1ncnc2c1c1ccccc1n2[C@@H]1O[C@H](CO)[C@@H](O)[C@H]1O is 1.33

Sample Nc1ncnc2c1c1cc(-c3cccs3)ccc1n2[C@@H]1O[C@H](CO)[C@@H](O)[C@H]1O , system: Hepatitis C virus. Its log10 of EC50 is 1.00

log10 of EC50 for Hepatitis C virus with input Nc1ncnc2c1c1cc(-c3ccsc3)ccc1n2[C@@H]1O[C@H](CO)[C@@H](O)[C@H]1O equals 1.00

Observed log10 of EC50, Hepatitis C virus, Cc1ncnc2c1c1ccccc1n2[C@@H]1O[C@H](CO)[C@@H](O)[C@H]1O : -0.25
